Where these numbers come from: patent US20020028809A1

Target: α1β1γδ subtype of nicotinic acetylcholine receptors (Rattus norvegicus, UniProt P18916+P25108+P25109+P25110)
Construct: Native receptor, no construct: "Triton X100 (2% w/v) was added
Sequence (P25108 21-457): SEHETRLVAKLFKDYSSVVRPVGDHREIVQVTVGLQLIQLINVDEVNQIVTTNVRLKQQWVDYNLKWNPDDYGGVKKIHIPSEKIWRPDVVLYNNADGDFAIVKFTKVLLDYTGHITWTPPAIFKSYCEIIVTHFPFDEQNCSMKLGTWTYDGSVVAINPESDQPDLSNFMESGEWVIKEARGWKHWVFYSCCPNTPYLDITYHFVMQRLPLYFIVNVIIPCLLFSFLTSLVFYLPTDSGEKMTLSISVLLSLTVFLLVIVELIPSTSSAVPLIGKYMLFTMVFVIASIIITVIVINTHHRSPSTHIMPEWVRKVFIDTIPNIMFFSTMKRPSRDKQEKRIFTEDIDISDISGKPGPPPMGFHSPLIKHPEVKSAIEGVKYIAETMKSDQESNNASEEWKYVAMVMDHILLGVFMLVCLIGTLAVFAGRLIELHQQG
Sequence (P25110 22-517): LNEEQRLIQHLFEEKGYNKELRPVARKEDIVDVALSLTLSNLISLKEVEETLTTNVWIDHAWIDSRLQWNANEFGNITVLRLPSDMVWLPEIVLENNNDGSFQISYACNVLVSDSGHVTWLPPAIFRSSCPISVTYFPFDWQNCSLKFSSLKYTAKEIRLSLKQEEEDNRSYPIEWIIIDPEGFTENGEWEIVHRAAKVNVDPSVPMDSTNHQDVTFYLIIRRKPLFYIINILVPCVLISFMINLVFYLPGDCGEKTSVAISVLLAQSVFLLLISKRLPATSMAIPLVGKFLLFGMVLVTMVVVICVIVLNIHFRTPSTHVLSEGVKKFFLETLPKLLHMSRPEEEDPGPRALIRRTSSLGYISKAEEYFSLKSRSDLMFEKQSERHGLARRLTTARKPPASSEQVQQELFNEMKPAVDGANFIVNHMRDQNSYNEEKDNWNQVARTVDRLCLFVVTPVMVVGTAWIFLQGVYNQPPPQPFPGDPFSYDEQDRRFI
Sequence (P25109 24-501): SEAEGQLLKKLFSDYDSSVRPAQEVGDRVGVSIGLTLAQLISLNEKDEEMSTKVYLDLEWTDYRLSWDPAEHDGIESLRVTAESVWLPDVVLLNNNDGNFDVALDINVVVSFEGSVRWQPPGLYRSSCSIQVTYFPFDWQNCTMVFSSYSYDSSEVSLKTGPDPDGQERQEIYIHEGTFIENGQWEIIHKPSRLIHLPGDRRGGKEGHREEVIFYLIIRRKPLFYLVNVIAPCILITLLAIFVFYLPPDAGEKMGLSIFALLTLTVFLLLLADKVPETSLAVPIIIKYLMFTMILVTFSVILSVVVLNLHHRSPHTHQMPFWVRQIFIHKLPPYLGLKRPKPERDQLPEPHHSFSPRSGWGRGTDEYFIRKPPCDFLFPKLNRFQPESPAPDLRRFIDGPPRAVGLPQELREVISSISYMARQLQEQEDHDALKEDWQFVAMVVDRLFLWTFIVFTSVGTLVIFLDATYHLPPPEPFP
Assay: Binding assays at α1β1γδ subtype of nicotinic acetylcholine receptors ([3H]-α-bungarotoxin, rat muscle extract)
pKi: −log10 of the molar value.
Label 1 (yes) when pKi >= 4; otherwise 0 (no).

compound: Cc1csc(=N)n1Cc1ccc(Br)nc1 [Compound 19]
assigned label: 1 (yes)
--
compound: Nc1nccn1Cc1cnc(Cl)s1 [Compound 50]
assigned label: 0 (no)
--
compound: N=c1sccn1Cc1c[nH]c2ncccc12 [Compound 66]
assigned label: 0 (no)
--
compound: N=c1ccccn1Cc1cccnc1 [Compound 26]
assigned label: 1 (yes)

pKi >= 4 for Cc1ccc(Cn2ccnc2N)cn1 [Compound 56] ?
0 (no)

pKi >= 4 for Cc1ccc(Cn2ccccc2=N)cn1 [Compound 48] ?
1 (yes)

pKi >= 4 for Cc1ccc(CN2CCSC2=N)cn1 [Compound 32] ?
1 (yes)
